# Target: HLA-B*39:01
# Measurement Description: IEDB peptide-MHC binding, purified MHC/direct/fluorescence; filed as Kd, often an IC50 or EC50 that approximates it; bounds were set here for any values at or beyond the usual limits of such assays
# Measurement Conditions: source organism: Mammarenavirus lassaense
pKd: −log10 of the molar value.
Assay Endpoint: pKd

>>> quantitative_result("KREEHYIVL")
7.00

====

# Target: HLA-A*68:01
# Measurement Description: IEDB peptide-MHC binding, purified MHC/competitive/radioactivity; filed as Kd, often an IC50 or EC50 that approximates it; bounds were set here for any values at or beyond the usual limits of such assays
# Measurement Conditions: source organism: Triticum aestivum
Assay Endpoint: Kd

>>> result("VVLQQHSIAY")
"≥ 24.9 µM"
